Where do these numbers come from? They come from PubChem BioAssay (EPA / NIEHS).

Experiment: ATG_PBREM_CIS: Attagene CIS-FACTORIAL HepG2 Assay for human Phenobarbital-responsive Enhancer Module (PBREM) (AID 2282955)
Settings: HepG2 PBREM cis-reporter, Attagene multiplexed transcription; actives raise or lower the signal
Calls of active or inactive are those of the source. Rule for the calls: active = hit-call score of the fitted dose curve at least 0.9, where 1 is the maximum; inactive = score below 0.9.
Respond only with the outcome that fits, drawn from yes (1) = active, no (0) = inactive

# count of solved cases: 8
{"MOLECULE": "CC(C)(C)N(NC(=O)c1ccc(Cl)cc1)C(=O)c1ccccc1", "CAT": "no (0)"}
{"MOLECULE": "O=[N+]([O-])c1ccc(Cl)c(Cl)c1", "CAT": "no (0)"}
{"MOLECULE": "CCCCCCCc1ccc(O)cc1", "CAT": "no (0)"}
{"MOLECULE": "C/C(=N\\NC(=O)Nc1cc(F)cc(F)c1)c1ncccc1C(=O)O", "CAT": "no (0)"}
{"MOLECULE": "CCOP(=S)(Oc1ccc([N+](=O)[O-])cc1)c1ccccc1 (configuration not stated)", "CAT": "no (0)"}
{"MOLECULE": "CCCCc1ccc(O)cc1", "CAT": "no (0)"}
{"MOLECULE": "CCOS(=O)(=O)OCC", "CAT": "no (0)"}
{"MOLECULE": "Nc1ccc2ccccc2c1", "CAT": "no (0)"}

Q. Identify the outcome logged in this assay for the molecule shown: O=C(O)C1C(C(=O)O)C2(Cl)C(Cl)=C(Cl)C1(Cl)C2(Cl)Cl (configuration not stated)
A. no (0)

Q. Identify the outcome logged in this assay for the molecule shown: CCOP(=S)(S)OCC
A. no (0)

Q. Identify the outcome logged in this assay for the molecule shown: c1ccc2c(c1)Nc1ccccc1S2
A. no (0)

Q. Identify the outcome logged in this assay for the molecule shown: O=c1ssc(Cl)c1Cl
A. yes (1)

Q. Identify the outcome logged in this assay for the molecule shown: Nc1ccc([N+](=O)[O-])cc1Cl
A. no (0)

Q. Identify the outcome logged in this assay for the molecule shown: CCC1(c2ccccc2)C(=O)N=C(O)NC1=O (configuration not stated)
A. no (0)

Q. Identify the outcome logged in this assay for the molecule shown: c1nc[nH]n1
A. no (0)

Q. Identify the outcome logged in this assay for the molecule shown: COP(=O)(CCC(=O)NCO)OC
A. no (0)

Q. Identify the outcome logged in this assay for the molecule shown: Cc1ccc2c(c1N)C(=O)c1ccccc1C2=O
A. no (0)

* * *

Read-out: Intercellular Adhesion Molecule 1 (ICAM1), ICAM1 (gene 3383)
Test: BSK_KF3CT_ICAM1: BioMAP Diversity Plus: KF3CT Assay for Intercellular Adhesion Molecule 1 (ICAM1) Biomarker Activity (AID 2283067)
Conditions: primary human keratinocytes with fibroblasts; actives raise or lower the signal
Active and inactive are the calls of the source. The calls were made as follows: active = hit-call score of the fitted dose curve at least 0.9, where 1 is the maximum; inactive = score below 0.9.
Respond only with the outcome that fits, drawn from active, inactive

# count of solved cases: 6
{"MOLECULE": "Cc1ccc([N+](=O)[O-])cc1C", "CAT": "inactive"}
{"MOLECULE": "COP(N)(=S)OC", "CAT": "inactive"}
{"MOLECULE": "c1ccc2c(c1)Nc1ccccc1S2", "CAT": "inactive"}
{"MOLECULE": "CCOP(=S)(OCC)SCSc1ccc(Cl)cc1", "CAT": "inactive"}
{"MOLECULE": "CCCCC(CC)COC(=O)c1c(Br)c(Br)c(Br)c(Br)c1C(=O)OCC(CC)CCCC (stereo not drawn)", "CAT": "inactive"}
{"MOLECULE": "CCN(CC)c1ccccc1", "CAT": "inactive"}

Q. Identify the outcome logged in this assay for the molecule shown: CCCCCCCc1ccc(O)cc1
A. active

Q. Identify the outcome logged in this assay for the molecule shown: CCOP(=S)(OCC)SCS(=O)(=O)CC
A. inactive

* * *

Read-out: Tissue Factor, F3 (gene 2152)
Assay: BSK_CASM3C_TissueFactor: BioMAP Diversity Plus: CASM3C Assay for Tissue Factor Biomarker Activity (AID 2283052);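 note: cell surface tissue factor protein level read by ELISA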
Settings: primary human coronary artery smooth muscle cells; actives raise or lower the signal
Active and inactive are the calls of the source. How the source made its calls: active means hit-call score of the fitted dose curve at least 0.9, where 1 is the maximum; inactive means score below 0.9.
Respond only with the outcome that fits, drawn from true for active, false for inactive

# count of solved cases: 5
{"MOLECULE": "CC(C)Nc1ccc(Nc2ccccc2)cc1", "CAT": "true"}
{"MOLECULE": "Nc1cc2c3c(c1)C(c1ccccc1)=N[C@@H](NC(=O)c1cccnc1)C(=O)N3CC2", "CAT": "false"}
{"MOLECULE": "O=C(O)C(F)(F)OC(F)(F)C(F)(F)OC(F)(F)F", "CAT": "false"}
{"MOLECULE": "c1ccc(OP(Oc2ccccc2)Oc2ccccc2)cc1", "CAT": "false"}
{"MOLECULE": "Cc1c([N+](=O)[O-])cc2c(c1[N+](=O)[O-])C(C)(C)CC2(C)C", "CAT": "false"}

Q. Identify the outcome logged in this assay for the molecule shown: CCOP(=S)(OCC)SCSc1ccc(Cl)cc1
A. true

Q. Identify the outcome logged in this assay for the molecule shown: CCOc1ccc(C(C)(C)COCc2cccc(Oc3ccccc3)c2)cc1
A. false

Q. Identify the outcome logged in this assay for the molecule shown: CCCCc1ccccc1
A. false

* * *

Test: ATG_E_Box_CIS: Attagene CIS-FACTORIAL HepG2 Assay for human Enhancer Box (E-box) (AID 2282936)
Details: HepG2 E-box cis-reporter transcription, actives raise or lower the signal
Calls of active or inactive are those of the source. Rule for the calls: active = hit-call score of the fitted dose curve at least 0.9, where 1 is the maximum; inactive = score below 0.9.
Respond only with the outcome that fits, drawn from active, inactive

# count of solved cases: 5
{"COMPOUND": "Cc1ccc([N+](=O)[O-])cc1C", "CAT": "inactive"}
{"COMPOUND": "O=P(Oc1ccccc1)(Oc1ccccc1)Oc1ccccc1", "CAT": "inactive"}
{"COMPOUND": "CC(Cl)(Cl)C(=O)O", "CAT": "inactive"}
{"COMPOUND": "C=C(C)C(=O)OCC1CO1 (configuration not stated)", "CAT": "inactive"}
{"COMPOUND": "CCOP(=S)(S)OCC", "CAT": "inactive"}

Q. Identify the outcome logged in this assay for the compound shown: Oc1ccc(I)cc1
A. inactive

Q. Identify the outcome logged in this assay for the compound shown: CCOP(=S)(OCC)SCS(=O)(=O)CC
A. inactive

Q. Identify the outcome logged in this assay for the compound shown: CCOC(=O)c1ccccc1N
A. inactive

Q. Identify the outcome logged in this assay for the compound shown: O=[N+]([O-])c1cc(Cl)ccc1Cl
A. inactive

Q. Identify the outcome logged in this assay for the compound shown: CC(Cc1ccc(OCC(=O)O)cc1)NCC(O)c1csc(C(F)(F)F)n1 (configuration not stated)
A. inactive

* * *

Assay: ATG_M_32_CIS: Attagene CIS-FACTORIAL HepG2 Assay for M32 Transcription Factor (Internal Marker) (AID 2282949);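 note: background control marker of the multiplexed CIS panel rather than a real target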
Settings: HepG2 Attagene cis-factorial M32 reporter, mRNA; actives raise or lower the signal
The source made the active and inactive calls. How the source made its calls: active means hit-call score of the fitted dose curve at least 0.9, where 1 is the maximum; inactive means score below 0.9.
Respond only with the outcome that fits, drawn from yes (1) = active, no (0) = inactive

# count of solved cases: 4
{"COMPOUND": "c1nc[nH]n1", "CAT": "no (0)"}
{"COMPOUND": "OCC1CO1 (centres undefined)", "CAT": "no (0)"}
{"COMPOUND": "O=C(O)C=CC(F)(C(F)(F)F)C(F)(F)F", "CAT": "no (0)"}
{"COMPOUND": "CN(C)C(=O)Cl", "CAT": "no (0)"}

Q. Identify the outcome logged in this assay for the compound shown: CCCN(CCC)c1c([N+](=O)[O-])cc(C(C)C)cc1[N+](=O)[O-]
A. no (0)

Q. Identify the outcome logged in this assay for the compound shown: C=C(C)C(=O)OCC1CO1 (centres undefined)
A. no (0)

Q. Identify the outcome logged in this assay for the compound shown: ClC(Cl)c1ccccc1
A. no (0)

Q. Identify the outcome logged in this assay for the compound shown: Nc1ccc([N+](=O)[O-])cc1Cl
A. no (0)

Q. Identify the outcome logged in this assay for the compound shown: CCOc1ccc(C(C)(C)COCc2cccc(Oc3ccccc3)c2)cc1
A. no (0)

Q. Identify the outcome logged in this assay for the compound shown: O=[N+]([O-])c1ccc(Cl)c(Cl)c1
A. no (0)

Q. Identify the outcome logged in this assay for the compound shown: OCC(F)(F)OC(F)(F)C(F)(F)OC(F)(F)C(F)(F)OC(F)(F)F
A. no (0)

* * *

Assay: BSK_hDFCGF_SRB: Viability Assessment in the BioMAP Diversity Plus: hDFCGF Assay (AID 2283061);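 note: cells exposed to compound for 24 h before the read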
Conditions: primary human foreskin fibroblasts
Activity calls are given as the source filed them. Rule for the calls: active = hit-call score of the fitted dose curve at least 0.9, where 1 is the maximum; inactive = score below 0.9.
Respond only with the outcome that fits, drawn from 1.0 (active), 0.0 (inactive)

# count of solved cases: 4
{"COMPOUND": "C=CC(=O)OCC(F)(F)C(F)F", "CAT": 0.0}
{"COMPOUND": "CN(C)C(=O)Cl", "CAT": 0.0}
{"COMPOUND": "CC(Cl)(Cl)C(=O)O", "CAT": 0.0}
{"COMPOUND": "Cc1ccc(O)cc1C", "CAT": 0.0}

Q. Identify the outcome logged in this assay for the compound shown: Cc1cccc(N)c1
A. 0.0

Q. Identify the outcome logged in this assay for the compound shown: CCN(CC)c1ccccc1
A. 0.0

Q. Identify the outcome logged in this assay for the compound shown: Cc1c([N+](=O)[O-])cc2c(c1[N+](=O)[O-])C(C)(C)CC2(C)C
A. 0.0

Q. Identify the outcome logged in this assay for the compound shown: C=CC(=O)OCC(CC)(COC(=O)C=C)COC(=O)C=C
A. 1.0

Q. Identify the outcome logged in this assay for the compound shown: O=C(O)C(F)(F)OC(F)(F)C(F)(F)OC(F)(F)C(=O)O
A. 0.0

Q. Identify the outcome logged in this assay for the compound shown: N#Cc1cc([N+](=O)[O-])ccc1N
A. 0.0
